- PROCEDURE_TEXT: ATG_AP_2_CIS: Attagene CIS-FACTORIAL HepG2 Assay for human Activator Protein 2 (AP-2) (AID 2282932)
- EXPERIMENTAL_CONDITIONS: HepG2 AP-2 cis-reporter, Attagene transcription factor profiling; actives raise or lower the signal
The source made the active and inactive calls. Rule for the calls: active = hit-call score of the fitted dose curve at least 0.9, where 1 is the maximum; inactive = score below 0.9. Peptide text beside a SMILES is read from it.
Outcomes: active, inactive

[
  {
    "COMPOUND": "Nc1cccc(N)n1",
    "CLASS_LABEL": "inactive"
  },
  {
    "COMPOUND": "CC(C)=NNC(N)=S",
    "CLASS_LABEL": "inactive"
  },
  {
    "COMPOUND": "CN1CCN(C)CC1",
    "CLASS_LABEL": "inactive"
  },
  {
    "COMPOUND": "C=CC(C)(CCC=C(C)C)OC(=O)C=Cc1ccccc1 (stereo not drawn)",
    "CLASS_LABEL": "inactive"
  },
  {
    "COMPOUND": "CCCCCCO",
    "CLASS_LABEL": "inactive"
  },
  {
    "COMPOUND": "O=C(Cl)c1c(Cl)c(Cl)c(C(=O)Cl)c(Cl)c1Cl",
    "CLASS_LABEL": "inactive"
  },
  {
    "COMPOUND": "O=C1c2ccccc2C(=O)c2cc(S(=O)(=O)O)ccc21",
    "CLASS_LABEL": "inactive"
  },
  {
    "COMPOUND": "[Cl][Eu]([Cl])[Cl]",
    "CLASS_LABEL": "inactive"
  },
  {
    "COMPOUND": "CCCCCCOC(=O)CCCCC(=O)OCCCCCC",
    "CLASS_LABEL": "inactive"
  },
  {
    "COMPOUND": "CC1OC(=O)C(C)OC1=O (stereo not drawn)",
    "CLASS_LABEL": "inactive"
  },
  {
    "COMPOUND": "CC(C)COC(=O)CC(C(=O)OCC(C)C)S(=O)(=O)O (stereo not drawn)",
    "CLASS_LABEL": "inactive"
  },
  {
    "COMPOUND": "Nc1nc(N)nc(-c2ccccc2)n1",
    "CLASS_LABEL": "inactive"
  },
  {
    "COMPOUND": "C=C(C)C1CC=C(C)C(OC(C)=O)C1 (stereo not drawn)",
    "CLASS_LABEL": "inactive"
  },
  {
    "COMPOUND": "O=C(O)c1ccc2c(c1)C(=O)OC2=O",
    "CLASS_LABEL": "inactive"
  },
  {
    "COMPOUND": "O=C(O[C@@H]1Cc2c(O)cc(O)cc2O[C@@H]1c1cc(O)c(O)c(O)c1)c1cc(O)c(O)c(O)c1",
    "CLASS_LABEL": "inactive"
  },
  {
    "COMPOUND": "CCOC(=O)[C@H](O)[C@@H](O)C(=O)OCC",
    "CLASS_LABEL": "inactive"
  },
  {
    "COMPOUND": "O=C1CCCN1C1CCCCC1",
    "CLASS_LABEL": "inactive"
  },
  {
    "COMPOUND": "COC(=O)[C@H](Cc1ccccc1)NC(=O)[C@@H](N)CC(=O)O (H-Asp-Phe-OMe)",
    "CLASS_LABEL": "inactive"
  },
  {
    "COMPOUND": "NNS(=O)(=O)c1ccc(Oc2ccc(S(=O)(=O)NN)cc2)cc1",
    "CLASS_LABEL": "inactive"
  },
  {
    "COMPOUND": "c1ccc2c(c1)[nH]c1ccccc12",
    "CLASS_LABEL": "inactive"
  },
  {
    "COMPOUND": "CC(c1cc(C(C)(C)C)cc(C(C)(C)C)c1O)c1cc(C(C)(C)C)cc(C(C)(C)C)c1O",
    "CLASS_LABEL": "inactive"
  },
  {
    "COMPOUND": "Cc1cc(C)n(CO)n1",
    "CLASS_LABEL": "inactive"
  },
  {
    "COMPOUND": "CCCCC1CCC(=O)O1 (stereo not drawn)",
    "CLASS_LABEL": "inactive"
  },
  {
    "COMPOUND": "CCCCCC[C@@H](O)C/C=C\\CCCCCCCC(=O)OCC(O)CO (stereo partly drawn)",
    "CLASS_LABEL": "active"
  },
  {
    "COMPOUND": "CC(=O)OCCc1ccccc1",
    "CLASS_LABEL": "inactive"
  },
  {
    "COMPOUND": "COc1ccc(-c2coc3cc(O)cc(O)c3c2=O)cc1",
    "CLASS_LABEL": "inactive"
  },
  {
    "COMPOUND": "C[Si]1(C)O[Si](C)(C)O[Si](C)(C)O[Si](C)(C)O[Si](C)(C)O1",
    "CLASS_LABEL": "inactive"
  },
  {
    "COMPOUND": "C=CC(C)(O)CC/C=C(\\C)CC (stereo not drawn)",
    "CLASS_LABEL": "inactive"
  }
]

---

- ASSAYED_SYSTEM: Bile acid receptor (Homo sapiens)
- PROCEDURE_TEXT: ATG_FXR_TRANS: Attagene TRANS-FACTORIAL HepG2 Assay for Farnesoid X Receptor (FXR) (AID 2282979);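 note: hits raise reporter mRNA above DMSO so AC50 marks FXR activation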
- EXPERIMENTAL_CONDITIONS: HepG2 Attagene TRANS FXR-GAL4 reporter transcription
Results filed as inconclusive are left out. Calls of active or inactive are those of the source. How the source made its calls: active means hit-call score of the fitted dose curve at least 0.9, where 1 is the maximum; inconclusive means response in the unintended direction; inactive means score below 0.9.
TEST_READOUT: outcome

[
  {
    "COMPOUND": "CCOC(=O)C1=NOC(c2ccccc2)(c2ccccc2)C1",
    "OBSERVED": "inactive"
  },
  {
    "COMPOUND": "CCCCCC1=CCCC1=O",
    "OBSERVED": "inactive"
  },
  {
    "COMPOUND": "COC(=O)CC(C)CCC=C(C)C (stereo not given)",
    "OBSERVED": "inactive"
  },
  {
    "COMPOUND": "O=C(Nc1ccccc1)c1cc(Cl)ccc1O",
    "OBSERVED": "inactive"
  },
  {
    "COMPOUND": "Cc1ccc([N+](=O)[O-])cc1N",
    "OBSERVED": "inactive"
  },
  {
    "COMPOUND": "CCCCCCCOC(=O)c1ccc(O)cc1",
    "OBSERVED": "inactive"
  },
  {
    "COMPOUND": "C=CC(C)(CCC=C(C)C)OC(=O)C=Cc1ccccc1 (stereo not given)",
    "OBSERVED": "inactive"
  },
  {
    "COMPOUND": "CC1=CP(=O)(c2ccccc2)CC1 (stereo not given)",
    "OBSERVED": "inactive"
  },
  {
    "COMPOUND": "CC12CCC(CC1)C(C)(C)O2",
    "OBSERVED": "inactive"
  },
  {
    "COMPOUND": "CCCC/C=C/C=C\\C=O",
    "OBSERVED": "inactive"
  },
  {
    "COMPOUND": "CC/C=C\\C/C=C\\C/C=C\\CCCCCCCC(=O)OC",
    "OBSERVED": "inactive"
  },
  {
    "COMPOUND": "CCC(C)(O)CCCC(C)C (stereo not given)",
    "OBSERVED": "inactive"
  },
  {
    "COMPOUND": "CC(C)C(=O)OCCc1ccccc1",
    "OBSERVED": "inactive"
  },
  {
    "COMPOUND": "CCOc1ccc(NC(N)=O)cc1",
    "OBSERVED": "inactive"
  },
  {
    "COMPOUND": "CCC(C)C(=O)OC (stereo not given)",
    "OBSERVED": "inactive"
  }
]

---

- ASSAYED_SYSTEM: Androgen Receptor/SRC-1 Co-activator, AR (gene 367) (UniProt P10275)
- Sequence (P10275 whole entry, looked up): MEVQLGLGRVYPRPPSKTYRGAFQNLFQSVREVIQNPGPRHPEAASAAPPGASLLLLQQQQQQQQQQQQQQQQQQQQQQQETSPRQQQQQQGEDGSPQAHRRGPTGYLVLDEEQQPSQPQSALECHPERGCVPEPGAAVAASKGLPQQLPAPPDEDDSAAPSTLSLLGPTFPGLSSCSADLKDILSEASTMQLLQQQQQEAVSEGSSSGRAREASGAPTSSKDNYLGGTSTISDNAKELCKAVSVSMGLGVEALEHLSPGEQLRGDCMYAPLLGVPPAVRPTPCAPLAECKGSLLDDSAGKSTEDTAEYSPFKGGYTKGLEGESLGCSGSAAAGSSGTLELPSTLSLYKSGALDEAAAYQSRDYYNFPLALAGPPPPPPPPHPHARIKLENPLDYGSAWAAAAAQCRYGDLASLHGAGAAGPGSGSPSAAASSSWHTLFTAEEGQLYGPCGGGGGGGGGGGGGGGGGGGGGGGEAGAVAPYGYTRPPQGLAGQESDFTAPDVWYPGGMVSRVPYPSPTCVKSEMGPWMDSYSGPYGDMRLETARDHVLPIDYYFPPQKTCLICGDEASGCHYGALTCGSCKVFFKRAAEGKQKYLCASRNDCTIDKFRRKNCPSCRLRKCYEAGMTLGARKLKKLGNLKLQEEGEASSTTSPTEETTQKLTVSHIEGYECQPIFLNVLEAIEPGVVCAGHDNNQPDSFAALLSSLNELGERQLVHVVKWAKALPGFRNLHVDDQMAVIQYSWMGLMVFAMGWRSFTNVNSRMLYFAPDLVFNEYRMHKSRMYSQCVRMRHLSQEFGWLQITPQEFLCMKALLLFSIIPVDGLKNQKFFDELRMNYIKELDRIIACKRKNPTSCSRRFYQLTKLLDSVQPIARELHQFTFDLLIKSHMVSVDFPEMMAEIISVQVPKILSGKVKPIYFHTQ
- PROCEDURE_TEXT: OT_AR_ARSRC1_0960: Odyssey Thera (OT) 16-hour HEK293T Protein-Complementation Assay for Androgen Receptor/SRC-1 Co-activator (AID 2283353);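 note: actives raise the signal above DMSO so potency reflects increased AR and SRC-1 complex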
Activity calls are given as the source filed them. How the source made its calls: active means hit-call score of the fitted dose curve at least 0.9, where 1 is the maximum; inconclusive means response in the unintended direction; inactive means score below 0.9.
Labels: active, inactive

[
  {
    "COMPOUND": "CN(C)Cc1cc(CN(C)C)c(O)c(CN(C)C)c1",
    "CLASS_LABEL": "inactive"
  },
  {
    "COMPOUND": "N#Cc1ccc(C(c2ccc(C#N)cc2)n2cncn2)cc1",
    "CLASS_LABEL": "inactive"
  },
  {
    "COMPOUND": "COc1ccc(C(=O)c2ccccc2)c(O)c1",
    "CLASS_LABEL": "inactive"
  },
  {
    "COMPOUND": "Cc1ccc(C)c(OCCCC(C)(C)C(=O)O)c1",
    "CLASS_LABEL": "inactive"
  },
  {
    "COMPOUND": "CCCCC(CC)COC(=O)/C=C/c1ccc(OC)cc1 (centres undefined)",
    "CLASS_LABEL": "active"
  },
  {
    "COMPOUND": "Oc1ccc(-c2ccccc2)c(Cl)c1",
    "CLASS_LABEL": "active"
  },
  {
    "COMPOUND": "CCCCCC[C@@H](O)C/C=C\\CCCCCCCC(=O)OCC(O)CO (some centres undefined)",
    "CLASS_LABEL": "inactive"
  },
  {
    "COMPOUND": "CCC[Si](OC)(OC)OC",
    "CLASS_LABEL": "inactive"
  },
  {
    "COMPOUND": "Cc1c(C(=O)c2c[nH]n(C)c2=O)ccc(S(C)(=O)=O)c1C1=NOCC1",
    "CLASS_LABEL": "inactive"
  }
]
